The measurements presented in this section are drawn from PubChem BioAssay (NCI).

Test system: OVCAR-4 ovarian
Assay Explanation: NCI tumour cell line growth inhibition, 48 h
Endpoint: TGI

[
  {
    "Compound": "COc1ccc(/C=N/Nc2[nH]c(=S)nc3[nH]ncc23)cc1",
    "Endpoint": "TGI",
    "Reading": "> 100 µM"
  },
  {
    "Compound": "Cc1[nH]c(=O)nc(N/N=C/c2ccc(Cl)c(Cl)c2)c1C(=O)Nc1ccc(Cl)c(Cl)c1",
    "Endpoint": "TGI",
    "Reading": "11 µM"
  },
  {
    "Compound": "CCOC(=O)/C=C1\\Nc2ccccc2C(c2ccccc2)=NC1OC(C)=O (stereo not given)",
    "Endpoint": "TGI",
    "Reading": "> 100 µM"
  },
  {
    "Compound": "CC(C)(CN1CCCCC1)C(=O)CC(SCCS(=O)(=O)O)c1ccc(Br)cc1 (stereo not given)",
    "Endpoint": "TGI",
    "Reading": "4.06 µM"
  },
  {
    "Compound": "COc1ccc(C(=O)Cc2cc(OC)ccc2OC)cc1",
    "Endpoint": "TGI",
    "Reading": "> 100 µM"
  }
]

* * *

Examples of molecules with documented TGI follow.
Tested on: NCI-H23 lung
Assay Explanation: NCI tumour cell line growth inhibition, 48 h

[
  {
    "Molecule": "O=C1C/C(=C\\O)C(=O)c2ccccc2N1",
    "TGI": "> 100 µM"
  },
  {
    "Molecule": "CC1=C(C#N)C(N)=C2C(C)=C(C#N)C(N)=C12",
    "TGI": "> 100 µM"
  },
  {
    "Molecule": "CCOC(=O)c1cnc2[nH]c(=O)c3ccccc3n2c1=O",
    "TGI": "> 100 µM"
  },
  {
    "Molecule": "NC(N)=N/N=C(\\c1ccc(Cl)cc1)C1CC1",
    "TGI": "73.1 µM"
  },
  {
    "Molecule": "COc1ccc2nc3ccc(OC)cc3c(SCCCN)c2c1",
    "TGI": "15.4 µM"
  },
  {
    "Molecule": "CC(=O)[CH-]C(=O)c1ccccc1.CC(=O)[CH-]C(=O)c1ccccc1.[O]=[U+2]=[O]",
    "TGI": "> 100 µM"
  },
  {
    "Molecule": "CC(C)OP(=O)(OC(C)C)C(N(C)C)P(=O)(OC(C)C)OC(C)C.[Cl][Sn]([Cl])([Cl])[c]1ccccc1",
    "TGI": "31.3 µM"
  },
  {
    "Molecule": "C/C(=N\\N(C)C)C(CN(C)C)C(c1ccccc1)c1c(O)c2ccccc2oc1=O (stereo unspecified)",
    "TGI": "> 100 µM"
  },
  {
    "Molecule": "CC(C)(CN1CCCCC1)C(=O)CC(SCCS(=O)(=O)O)c1ccc(Br)cc1 (stereo unspecified)",
    "TGI": "5.9 µM"
  },
  {
    "Molecule": "CC(CS(=O)(=O)Cc1ccccc1)C(N)=O (stereo unspecified)",
    "TGI": "> 100 µM"
  },
  {
    "Molecule": "Cc1ncc([N+](=O)[O-])n1CCN=[N+]=[N-]",
    "TGI": "> 100 µM"
  }
]

* * *

Tested on: LOX IMVI melanoma
Assay Explanation: NCI tumour cell line growth inhibition, 48 h
Endpoint: TGI

[
  {
    "Smiles String": "COc1ccc2nc3ccc(OC)cc3c(SCCCN)c2c1",
    "Endpoint": "TGI",
    "Reading": "5.26 µM"
  },
  {
    "Smiles String": "C=CCc1c(O)c2ccccc2[nH]c1=O",
    "Endpoint": "TGI",
    "Reading": "> 100 µM"
  },
  {
    "Smiles String": "CCCCn1cc(C(=O)O)c(=O)c2c3sccc3ccc21",
    "Endpoint": "TGI",
    "Reading": "> 100 µM"
  },
  {
    "Smiles String": "CN1C(=O)c2cc(Cl)nc3c(NC(=O)c4cccc(Cl)c4)c(Cl)c(NC(=O)c4cccc(Cl)c4)c1c23",
    "Endpoint": "TGI",
    "Reading": "2.58 µM"
  },
  {
    "Smiles String": "COc1cc(S(=O)(=O)Nc2nc(-c3ccc(N4C(=O)/C(=C/c5ccccc5)N=C4c4ccccc4)cc3)cs2)ccc1Cl",
    "Endpoint": "TGI",
    "Reading": "> 100 µM"
  },
  {
    "Smiles String": "O=C(c1ccccc1F)c1c(NCc2ccccc2)c(=O)c1=O",
    "Endpoint": "TGI",
    "Reading": "> 100 µM"
  }
]

* * *

Examples of compounds with documented TGI follow.
Test system: NCI-H460 lung
Assay Explanation: NCI tumour cell line growth inhibition, 48 h
Where a SMILES comes first, the peptide text is derived from it. [ ]: non-standard residue; d: D form. The star is where a group is joined. ξ: configuration not given here. NMeY = CN[C@@H](Cc1ccc(O)cc1)C(=O)O; Cbz = O=C(OCc1ccccc1)*; ξA = CC(N)C(=O)O

[
  {
    "Compound": "NC(N)=N/N=C(\\c1ccc(Cl)cc1)C1CC1",
    "TGI": "29.9 µM"
  },
  {
    "Compound": "CC1(CC(=O)O)OC2CCCCCC2O1 (stereo not drawn) (tested in a mixture with another compound)",
    "TGI": "> 100 µM"
  },
  {
    "Compound": "COc1ccc(C[C@@H](C(=O)NCC(N)=O)N(C)C(=O)[C@@H]2CCCN2C(=O)[C@H](CC(C)C)NC(=O)C(C)NC(=O)OCc2ccccc2)cc1 (stereo partly drawn) (Cbz-[ξA]LP[NMeY](Me)G-NH2)",
    "TGI": "> 100 µM"
  },
  {
    "Compound": "O=c1[nH]c(=O)n(C2CC(O)C(CO)O2)cc1C#Cc1ccc(C(F)(F)F)cc1 (stereo not drawn)",
    "TGI": "> 100 µM"
  },
  {
    "Compound": "Cc1ccc(C2=Nc3c(N)ncnc3NC(c3cccc(Nc4ccnc5cc(C(F)(F)F)ccc45)c3)C2)cc1 (stereo not drawn)",
    "TGI": "10.5 µM"
  },
  {
    "Compound": "Cc1ccc2c(c1)c(=O)c1c(NCCN(C)C)ccc3nnn2c31",
    "TGI": "10.2 µM"
  },
  {
    "Compound": "COc1cc2c3c(c1OC)-c1ccccc1C(C(OC(C)=O)c1ccccc1)C3N(C)CC2 (stereo not drawn)",
    "TGI": "> 100 µM"
  },
  {
    "Compound": "C=C1C(=O)O[C@H]2C1[C@H](OC(=O)/C(C)=C\\COC(C)=O)C[C@]1(CO1)[C@@H]1[C@H](O)[C@H]3O[C@@]3(C)[C@@H]12 (stereo partly drawn)",
    "TGI": "> 100 µM"
  }
]

* * *

System: SR leukemia
Assay Explanation: NCI tumour cell line growth inhibition, 48 h; in the data active = GI50 below about 0.43 µM; inactive = the rest
Possible outcomes: TRUE = active, FALSE = inactive

[
  {
    "Molecule": "COc1ccccc1C1C(C#N)=C(N)OC2=C1C(=O)CCC2 (stereo not drawn)",
    "Cat": "FALSE"
  },
  {
    "Molecule": "O=C1C=C(Nc2cccc(Br)c2)c2ccccc2C1=O",
    "Cat": "FALSE"
  },
  {
    "Molecule": "CCN(CC)CCC(=O)Nc1ccc(Cn2nnc3c2C(=O)c2nnn(Cc4ccc(NC(=O)CCN(CC)CC)cc4)c2C3=O)cc1",
    "Cat": "FALSE"
  },
  {
    "Molecule": "O=C1c2cccnc2C(=O)c2c1c(C(=O)OCCCN1CCOCC1)c1ccccn21",
    "Cat": "TRUE"
  },
  {
    "Molecule": "Cc1nnc([S-])s1.[Au+].c1ccc([PH+](c2ccccc2)c2ccccc2)cc1",
    "Cat": "FALSE"
  },
  {
    "Molecule": "Nc1ncnc2occ(-c3ccc(NC(=O)Nc4cc(C(F)(F)F)cc(C(F)(F)F)c4)cc3)c12",
    "Cat": "FALSE"
  },
  {
    "Molecule": "O=C1OC(c2ccc(O)cc2)(c2ccc(O)cc2)c2cccc3cccc1c23",
    "Cat": "FALSE"
  },
  {
    "Molecule": "COC(=O)[C@H](Cc1ccccc1)NC(=O)c1csc([C@@H](C[C@H](C(C)C)N(C)C(=O)[C@@H](NC(=O)[C@H]2CCCCN2C)C2CC2)OC(C)=O)n1",
    "Cat": "TRUE"
  },
  {
    "Molecule": "CC[C@]12C=CCN3CC[C@]4(C(=C(C(=O)OC)C1)Nc1cc(O)ccc14)[C@@H]32",
    "Cat": "FALSE"
  },
  {
    "Molecule": "COc1cccc(-c2nn(-c3ccccc3)cc2-c2ccnc(NCCNC(=O)Nc3ccc(Cl)c(Cl)c3)c2)c1",
    "Cat": "FALSE"
  },
  {
    "Molecule": "CCCC/C(=N\\N=C(N)N)c1ccc(F)cc1",
    "Cat": "FALSE"
  },
  {
    "Molecule": "O=C1c2c(O)cccc2C(C(=O)CCCCC(=O)C2c3cccc(O)c3C(=O)c3c(O)cccc32)c2cccc(O)c21",
    "Cat": "FALSE"
  },
  {
    "Molecule": "c1ccc2c(c1)nc(NCCN1CCNCC1)c1c3ccccc3[nH]c21",
    "Cat": "TRUE"
  }
]
